Target: N-terminal 6His-tagged ROCK2 catalytic domain 11-552 (Homo sapiens, UniProt O75116)
Construct: N-terminal 6His-tagged ROCK2 catalytic domain 11-552; 6His (N); purchased Dundee University, UK; host or cells: baculovirus expression system
Sequence (O75116 11-552): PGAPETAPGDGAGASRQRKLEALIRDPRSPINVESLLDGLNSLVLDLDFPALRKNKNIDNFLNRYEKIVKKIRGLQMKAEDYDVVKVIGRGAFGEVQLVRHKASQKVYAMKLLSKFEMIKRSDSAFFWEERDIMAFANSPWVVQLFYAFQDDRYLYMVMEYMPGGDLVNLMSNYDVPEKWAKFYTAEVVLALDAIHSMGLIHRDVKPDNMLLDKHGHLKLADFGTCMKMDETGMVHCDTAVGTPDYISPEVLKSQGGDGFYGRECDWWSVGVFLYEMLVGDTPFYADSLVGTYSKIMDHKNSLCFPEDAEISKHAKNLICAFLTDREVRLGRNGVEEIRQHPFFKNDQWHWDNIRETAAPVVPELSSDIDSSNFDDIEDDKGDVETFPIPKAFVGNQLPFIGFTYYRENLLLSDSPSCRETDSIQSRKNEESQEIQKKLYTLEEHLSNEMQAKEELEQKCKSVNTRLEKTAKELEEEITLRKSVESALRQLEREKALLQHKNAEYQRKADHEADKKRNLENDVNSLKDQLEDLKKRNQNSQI
Test: ROCK2 binding activity: ROCK2 inhibition, ADP-Glo Kinase Assay
Type: biochemical
Conditions: 1.25 nM ROCK2, 100 μM long S6 peptide, 20 μM ATP; 1 hour pre-incubation; read-out: ADP-Glo kinase activity assay ROCK2 Category
Where a name gives a salt, the structure may show the parent alone.
MEASUREMENT TYPE: IC50

Consider the reported IC50 for these compounds:
stdin: May I ask what IC50 has been recorded for CC(C)NC(=O)CCn1cc(-c2nnc(Nc3ccc4[nH]ncc4c3)[nH]2)ccc1=O ?
stdout: 300 to 3000 nM

stdin: Param item: CCNC(=O)c1ccc(-c2nc(Nc3ccc4[nH]ncc4c3Cl)n(C)n2)cc1Cl
stdout: 300 to 3000 nM

stdin: Follow-up entry: Cn1nc(-c2ccc(C(=O)NC3CCCCC3O)cc2)nc1Nc1ccc2[nH]ncc2c1C1CC1 (centres unmarked)
stdout: < 300 nM

stdin: For COc1ccc(-c2nnc(Nc3ccc4[nH]ncc4c3)[nH]2)cc1 [Example 1, dihydrochloride] then?
stdout: 300 to 3000 nM

More entries:
stdin: Fill in the blank: the reported IC50 of COc1cc(-c2nc(Nc3ccc4[nH]ncc4c3C)n(C)n2)ccc1C(=O)NC(C)(C)C is ____.
stdout: < 300 nM

stdin: How about this compound: COc1ccc(-c2nc(Nc3ccc4[nH]ncc4c3Cl)n(C)n2)c(F)c1
stdout: < 300 nM

stdin: What do you get for COc1cc(-c2nc(Nc3ccc4[nH]ncc4c3Cl)n(C)n2)ccc1C(=O)NC1(CO)CC1 ?
stdout: < 300 nM

stdin: Another compound to check: Cn1nc(-c2ccc(C(=O)NC3(C)CC3)cc2)nc1Nc1ccc2[nH]ncc2c1Cl
stdout: < 300 nM

----------
pIC50: −log10 of the molar value.
As an illustration, consider measured pIC50 for compounds on N-terminal 6His-tagged ROCK2 catalytic domain 11-552 (Homo sapiens, UniProt O75116).

Example entries and their recorded answers appear below.
stdin: Look up pIC50 for this compound: CC(C)NC(=O)COc1c(F)cc(-c2nc(Nc3ccc4[nH]ncc4c3Cl)n(C)n2)cc1F [Example 368]
stdout: > 6.52

stdin: Further, for Cc1n[nH]c2ccc(Nc3nc(-c4ccc(C(=O)NCC(F)(F)F)cc4)nn3C)cc12 [Example 427] ?
stdout: > 6.52

stdin: Same again, this time with COc1cc(-c2nc(Nc3ccc4[nH]ncc4c3C)n(C)n2)ccc1C(=O)NCCN(C)C [Example 329]
stdout: 5.00 to 5.52

stdin: Same question, CCNC(=O)c1ccc(-c2nc(Nc3ccc4[nH]ncc4c3)n(C)n2)cc1C [Example 394] this time
stdout: 5.52 to 6.52

***
stdin: What pIC50 value was documented for this compound, CCNC(=O)c1ccc(-c2nc(Nc3ccc4[nH]ncc4c3)n(C)n2)cc1 [Example 324] ?
stdout: > 6.52

stdin: Okay, and CCc1c(Nc2nc(-c3ccc(C(=O)NCC(F)(F)F)cc3)nn2C)ccc2[nH]ncc12 [Example 423] ?
stdout: > 6.52

stdin: Follow-up item: CC(C)NC(=O)CCn1ccc(-c2nnc(Nc3ccc4[nH]ncc4c3)[nH]2)cc1=O [Example 33]
stdout: < 5.00

stdin: Please give the result for Cc1c(Nc2nc(-c3ccc(C(=O)NCC(F)(F)F)c(F)c3F)nn2C)ccc2[nH]ncc12 [Example 419] too.
stdout: > 6.52

----------
pIC50: −log10 of the molar value.
Let's go through some recorded pIC50 values for N-terminal 6His-tagged ROCK2 catalytic domain 11-552 (Homo sapiens, UniProt O75116) together.

stdin: What value of pIC50 has been recorded for this entry: CN1CC(NC(=O)c2ccc(-c3nc(Nc4ccc5[nH]ncc5c4Cl)n(C)n3)cc2Cl)C1 [Example 259]
stdout: 5.00 to 5.52

stdin: Also COc1cc(-c2nc(Nc3ccc4[nH]ncc4c3Cl)n(C)n2)ccc1OCC(=O)NC1CCOC1 (stereo not shown) [Example 51] , if possible.
stdout: > 6.52

stdin: Again, but for Cn1nc(-c2ccc(C3=NCC(C)(C)O3)cc2)nc1Nc1ccc2[nH]ncc2c1C1CC1 [Example 287]
stdout: > 6.52

stdin: Another molecule to look at: CCNC(=O)c1ccc(-c2nc(Nc3ccc4[nH]ncc4c3)n(C)n2)cc1C#N [Example 412]
stdout: > 6.52

stdin: Again, but for Cn1nc(-c2ccc(CN)c(F)c2)nc1Nc1ccc2[nH]ncc2c1Cl [Example 128]
stdout: > 6.52

----------
Each entry below carries its reported pIC50.
Molecular target: N-terminal 6His-tagged ROCK2 catalytic domain 11-552 (Homo sapiens, UniProt O75116)
Construct: N-terminal 6His-tagged ROCK2 catalytic domain 11-552; 6His (N); purchased Dundee University, UK; host or cells: baculovirus expression system
Test: ROCK2 binding activity: ROCK2 inhibition, ADP-Glo Kinase Assay
Format: biochemical
Settings: 1.25 nM ROCK2, 100 μM long S6 peptide, 20 μM ATP; 1 hour pre-incubation; read-out: ADP-Glo kinase activity assay ROCK2 Category
pIC50: −log10 of the molar value.

Here is how some molecules turned out for pIC50.
stdin: Fill in the blank: the reported pIC50 of CC(C)NC(=O)COc1ccc(-c2nc(Nc3ccc4[nH]ncc4c3Cl)n(C)n2)c(C(F)(F)F)c1 is ____.
stdout: > 6.52

stdin: Proceed to Cn1nc(-c2ccc3c(c2)CCN(C(=O)C(C)(C)C)C3)nc1Nc1ccc2[nH]ncc2c1Cl
stdout: > 6.52

Next:
stdin: Bench note: what pIC50 did Cn1nc(-c2ccc3c(c2)CCNC3)nc1Nc1ccc2[nH]ncc2c1Cl show?
stdout: 5.52 to 6.52

----------
Here we list molecules with their recorded IC50 when tested on N-terminal 6His-tagged ROCK2 catalytic domain 11-552 (Homo sapiens).

Examples with answers:
stdin: Any idea what IC50 was measured for CC(C)NC(=O)COc1ccc(-c2nc(Nc3ccc4[nH]ncc4c3Cl)n(C)n2)cc1Cl [Example 472] ?
stdout: < 300 nM

stdin: Check NCCOc1ccc(-c2nnc(Nc3ccc4[nH]ncc4c3)[nH]2)cc1 [Example 24] too.
stdout: 300 to 3000 nM

stdin: Similarly, CC(C)NC(=O)CCc1ccc(-c2nnc(Nc3ccc4[nH]ncc4c3)[nH]2)cc1 [Example 20] ?
stdout: 300 to 3000 nM

stdin: What about this molecule? CC(C)NC(=O)COc1ccc(-c2nc(Nc3ccc4[nH]ncc4c3)n(C)n2)c(F)c1 [Example 405]
stdout: < 300 nM

Switching to the query record.
stdin: Could you share which IC50 value was measured for Cc1cc(-c2nnc(Nc3ccc4[nH]ncc4c3)[nH]2)ccc1OCC(=O)NC(C)C [Example 10] ?
stdout: < 300 nM

----------
These compounds were tested on N-terminal 6His-tagged ROCK2 catalytic domain 11-552 (Homo sapiens); IC50 is the recorded read-out.

Example cases with answers are listed next.
stdin: Name the recorded IC50 for Cn1nc(-c2cncnc2)nc1Nc1ccc2[nH]ncc2c1Cl [Example 76] .
stdout: 300 to 3000 nM

stdin: For COc1cc(-c2nnc(Nc3ccc4[nH]ncc4c3)[nH]2)ccc1OCC(=O)NC(C)C [Example 8] then?
stdout: < 300 nM

stdin: Cool, now CC(C)NC(=O)C(C)(C)Oc1ccc(-c2nnc(Nc3ccc4[nH]ncc4c3)[nH]2)cc1 [Example 19]
stdout: 300 to 3000 nM

***
stdin: Quick one: IC50 for O=C(COc1ccc(-c2nnc(Nc3ccc4[nH]ncc4c3)[nH]2)cc1)NC1CCCC1 [Example 160] ?
stdout: < 300 nM

stdin: // next record COc1cc(-c2nc(Nc3ccc4[nH]ncc4c3Cl)n(C)n2)ccc1C(N)=O [Example 203]
stdout: < 300 nM

stdin: Continue with CCc1c(Nc2nc(-c3ccc(C(=O)NCC(F)(F)F)c(C)c3)nn2C)ccc2[nH]ncc12 [Example 424]
stdout: < 300 nM

stdin: Here is the next compound: COc1cc(-c2nnc(Nc3ccc4[nH]ncc4c3)[nH]2)ccc1OCC(=O)NC1CCC1 [Example 165]
stdout: < 300 nM

----------
pIC50: −log10 of the molar value.
Quick record: pIC50, N-terminal 6His-tagged ROCK2 catalytic domain 11-552 (Homo sapiens, UniProt O75116).

# annotated cases, reported pIC50 shown
stdin: Look up pIC50 with N-terminal 6His-tagged ROCK2 catalytic domain 11-552 (Homo sapiens, UniProt O75116) for this compound: Cn1nc(-c2ccc(C(=O)NC3(CO)CCCC3)cc2)nc1Nc1ccc2[nH]ncc2c1C1CC1
stdout: > 6.52

stdin: Consider next the compound COc1cccc(-c2nnc(Nc3ccc4[nH]ncc4c3)[nH]2)c1 in the same way.
stdout: 5.52 to 6.52

stdin: Note, next up: CCc1c(Nc2nc(-c3ccc(C(=O)NC4CCC(F)(F)C4)cc3)nn2C)ccc2[nH]ncc12 (stereo not shown)
stdout: > 6.52

stdin: Next record, please: COc1cc(-c2nc(Nc3ccc4[nH]ncc4c3Cl)n(C)n2)ccc1OCC(=O)NC1CCCC1
stdout: > 6.52

Further cases:
stdin: Notebook entry, N-terminal 6His-tagged ROCK2 catalytic domain 11-552 (Homo sapiens, UniProt O75116) assay: pIC50 of COc1cc(OCC(=O)NC(C)C)ccc1-c1nc(Nc2ccc3[nH]ncc3c2Cl)n(C)n1 = ?
stdout: > 6.52

stdin: Check COc1cc(-c2nc(Nc3ccc4[nH]ncc4c3F)n(C)n2)ccc1C(=O)NC(C)(C)C too.
stdout: > 6.52

stdin: Another: CC(C)NC(=O)COc1cc(F)c(-c2nc(Nc3ccc4[nH]ncc4c3)n(C)n2)cc1F
stdout: > 6.52

stdin: Subsequent entry: CN(C)c1ccc(-c2nc(Nc3ccc4[nH]ncc4c3Cl)n(C)n2)cn1
stdout: 5.52 to 6.52

stdin: Record: Cn1nc(-c2ccc(C(=O)NCC(F)(F)CO)cc2)nc1Nc1ccc2[nH]ncc2c1C1CC1
stdout: > 6.52

stdin: // query: COc1cc(-c2nc(Nc3ccc4[nH]ncc4c3)n(C)n2)ccc1COC(=O)NC1CCNC1 (stereo not shown)
stdout: > 6.52

stdin: Now the compound Cn1nc(-c2cccc(N)c2)nc1Nc1ccc2[nH]ncc2c1Cl
stdout: 5.52 to 6.52

stdin: Entry Cn1nc(-c2cccnc2)nc1Nc1ccc2[nH]ncc2c1Cl please
stdout: 5.00 to 5.52

stdin: Also Cn1nc(-c2ccc(C(=O)NC3CC3)c(F)c2)nc1Nc1ccc2[nH]ncc2c1C1CC1 ?
stdout: > 6.52

Numbers sourced from patent US11497751B2.
